testedTarget: human CB2 receptors (Homo sapiens (Human), UniProt P34972)
Sequence (P34972 whole entry): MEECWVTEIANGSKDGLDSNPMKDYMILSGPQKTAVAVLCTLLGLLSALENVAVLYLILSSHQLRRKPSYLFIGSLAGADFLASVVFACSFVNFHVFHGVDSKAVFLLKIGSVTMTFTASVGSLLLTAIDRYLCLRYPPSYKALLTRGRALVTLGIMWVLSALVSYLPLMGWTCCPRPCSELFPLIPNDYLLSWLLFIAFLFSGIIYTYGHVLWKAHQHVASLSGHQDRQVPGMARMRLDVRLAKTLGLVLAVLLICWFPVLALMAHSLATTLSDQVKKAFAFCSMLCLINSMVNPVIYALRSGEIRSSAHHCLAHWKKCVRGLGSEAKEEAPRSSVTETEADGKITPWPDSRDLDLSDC
assayDetails: cAMP assay, CHO cells expressing human CB2 receptors
Format: cell-based
testConditions: functional cAMP assay, CHO cells expressing human CB2; read-out: EC50 CB2 human
Description: CHO cells expressing human CB1 or CB2 receptors are seeded 17-24 hours prior to the experiment 50.000 cells per well in a black 96 well plate with flat clear bottom (Corning Costar #3904) in DMEM (Invitrogen No. 31331), 1×HT supplement, with 10% fetal calf serum and incubated at 5% CO2 and 37° C. in a humidified incubator. […] The time-resolved energy transfer is measured by a TRF reader (Evotec Technologies GmbH), equipped with a ND:YAG laser as excitation source. […]
Could you please mark condition met for values of EC50 below 50 nM and condition not met for values at or above it?

{"compound": "FC(F)(F)COc1cc(-c2ncon2)ncc1C1CC1 [Example 39]", "label": "condition not met"}
{"compound": "CN1CCC(Oc2cc(-c3noc(C(C)(C)C)n3)ncc2C2CC2)C1 (centres unmarked) [Example 59]", "label": "condition met"}
{"compound": "CC(C)(C)c1noc(-c2cc(OCC(F)F)c(C3CC3)cn2)n1 [Example 123]", "label": "condition met"}
{"compound": "c1ccc(Cc2noc(-c3cc(OCC4CC4)c(C4CC4)cn3)n2)cc1 [Example 5]", "label": "condition not met"}
{"compound": "CN1CCCCC1COc1cc(-c2noc(C(C)(C)C)n2)ncc1C1CC1 (centres unmarked) [Example 97]", "label": "condition met"}
